target: OAT10/SLC22A13 (Homo sapiens)
Sequence (Q9Y226 whole entry): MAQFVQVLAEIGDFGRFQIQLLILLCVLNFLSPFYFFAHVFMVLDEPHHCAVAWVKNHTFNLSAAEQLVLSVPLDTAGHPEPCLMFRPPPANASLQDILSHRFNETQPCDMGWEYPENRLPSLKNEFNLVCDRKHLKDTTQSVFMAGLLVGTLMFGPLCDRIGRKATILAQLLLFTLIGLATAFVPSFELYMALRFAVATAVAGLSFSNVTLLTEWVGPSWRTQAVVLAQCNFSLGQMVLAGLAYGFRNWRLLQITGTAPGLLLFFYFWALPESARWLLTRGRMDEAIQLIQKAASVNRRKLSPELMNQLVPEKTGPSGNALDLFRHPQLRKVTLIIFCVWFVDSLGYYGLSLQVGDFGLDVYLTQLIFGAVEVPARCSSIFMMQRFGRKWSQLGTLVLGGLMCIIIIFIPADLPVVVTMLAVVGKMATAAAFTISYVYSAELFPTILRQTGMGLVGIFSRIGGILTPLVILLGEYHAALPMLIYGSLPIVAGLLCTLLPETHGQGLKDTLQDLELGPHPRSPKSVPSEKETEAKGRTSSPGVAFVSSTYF
assay-info: inhibition of [[…]-14C]-urate uptake in OAT10-expressing […] cells
Type: cell-based
readout-name: pIC50
// pIC50 here means minus log10 of the molar concentration (mol/L)

Need pIC50, item CCCCc1nc(Cl)c(CO)n1Cc1ccc(-c2ccccc2-c2nn[nH]n2)cc1
5.60
